Biological target: beta-catenin/TCF4 engagement (Homo sapiens)
Construct: expressed in transfected cells; host or cells: HEK293
Test: Nano-BRET target engagement assay (B-cat-Halo & TCF4-Luc in HEK293 cells)
Format: cell-based
Conditions: absolute IC50; read-out: NanoBRET Abs IC50
measured_attribute: IC50 (µM)
Could you give me the number in µM? Just the number is fine.

Give the measured IC50 of CC(=O)N1CCC[C@]12CC=CCCCC1(CCCC=CCCCOC(=O)N3CC[C@@](C(=O)N[C@@H](Cc4ccsc4)C(=O)N[C@H](C(=O)N[C@@H](CCC(N)=O)C(N)=O)[C@H](C)c4ccc5ccccc5c4)(C3)NC(=O)[C@H](CC(C)C)NC(=O)[C@H](Cc3ccccc3)NC(=O)[C@H](C)NC(=O)[C@H](C)NC(=O)[C@H](Cc3cccc(C(=O)O)c3)NC(=O)[C@H](CC(=O)O)NC1=O)NC(=O)[C@H](CC(C)(C)C)NC(=O)[C@H](CC(=O)O)NC2=O (some centres unmarked) .
5.2

Any idea what its IC50 is? The compound is CC(=O)N1CCC[C@]12CC=CCCCC1(CCCC=CCCCOC(=O)N3CC[C@@](C(=O)N[C@@H](Cc4ccccc4C(F)(F)F)C(=O)N[C@@H](Cc4csc5ccccc45)C(=O)N[C@@H](CCC(N)=O)C(=O)N[C@@H](CC(C)C)C(=O)NC4(C(N)=O)CCCC4)(C3)NC(=O)[C@H](CC(C)C)NC(=O)[C@H](Cc3ccccc3)NC(=O)[C@H](C)NC(=O)[C@H](C)NC(=O)[C@H](Cc3cccc(C(=O)O)c3)NC(=O)[C@H](CC(=O)O)NC1=O)NC(=O)[C@H](CC(C)(C)C)NC(=O)[C@H](CC(=O)O)NC2=O (some centres unmarked)
7.1

---

Tested on: TCF/LEF luciferase Reporter in DLD1 cells
Assay: TCF reporter assay (DLD1 TCF/LEF luciferase reporter, Bright-Glo)
Type: cell-based
Details: read-out: DLD1 4% Abs IC50; DLD1 reporter, 4%, absolute IC50
Procedure: Those skilled in the art will appreciate that other suitable reagents may be utilized and various parameters may be adjusted. DLD1 reporter cell line was generated by using TCF/LEF luciferase Reporter Lentivirus (BPS Bioscience Catalog #79787). […] On Day 3, luciferase levels were assessed using Bright-Glo (Promega). […] When ready to read, remove plates from incubator and let sit at room temperature for 15 minutes. Typically stagger taking out plates if reading multiple plates before adding the Bright-Glo. […]
For each record, write down the corresponding pIC50.
Please keep in mind that pIC50 is minus log10 of the molar concentration; only the number is needed.

pIC50 for CC(=O)N1CCC[C@]12CC=CCCCC1(CCCC=CCCCOC(=O)N3CC[C@@](C(=O)N[C@@H](Cc4ccccc4C(F)(F)F)C(=O)N[C@@H](Cc4csc5ccccc45)C(=O)N[C@@H](CO)C(N)=O)(C3)NC(=O)[C@H](CC(C)C)NC(=O)[C@H](Cc3ccccc3)NC(=O)[C@H](C)NC(=O)[C@H](C)NC(=O)[C@H](Cn3cc(CC(C)(C)C(=O)O)nn3)NC(=O)[C@H](CC(=O)O)NC1=O)NC(=O)[C@H](CC(C)(C)C)NC(=O)[C@H](CC(=O)O)NC2=O (some centres unmarked) [I-2372] ?
5.68

Requested read-out: pIC50. Entry: CC(=O)N1CCC[C@]12CC=CCCCC1(CCCC=CCCCOC(=O)N3CC[C@@](C(=O)N[C@@H](Cc4ccccc4C(F)(F)F)C(=O)N[C@@H](Cc4csc5ccccc45)C(=O)N[C@@H](CCC(N)=O)C(=O)N[C@@H](Cc4ccccc4)C(=O)N[C@@H](C)C(N)=O)(C3)NC(=O)[C@H](CC(C)C)NC(=O)[C@H](Cc3ccccc3)NC(=O)[C@H](C)NC(=O)[C@H](C)NC(=O)[C@H](Cc3cccc(C(=O)O)c3)NC(=O)[C@H](CC(=O)O)NC1=O)NC(=O)[C@H](CC(C)(C)C)NC(=O)[C@H](CC(=O)O)NC2=O (some centres unmarked) [I-2400]
6.10

// pIC50 lookup, key: CC(=O)N1CCC[C@]12CC=CCCCC1(CCCC=CCCCOC(=O)N3CC[C@@](C(=O)N[C@@H](Cc4ccccc4Cl)C(=O)N[C@@H](Cc4csc5ccccc45)C(=O)N[C@H](CO)[C@@H](C)O)(C3)NC(=O)[C@H]([C@@H](C)O)NC(=O)[C@H](Cc3ccccc3)NC(=O)[C@H](C)NC(=O)[C@H](C)NC(=O)[C@H](CC(=O)O)NC(=O)[C@H](CC(=O)O)NC1=O)NC(=O)[C@H](CC(C)(C)C)NC(=O)[C@H](CC(=O)O)NC2=O (some centres unmarked) [I-1245]
5.39

# input molecule: CC(=O)N1CCC[C@]12CC=CCCCC1(CCCC=CCCCOC(=O)N3CC[C@@](C(=O)N[C@@H](Cc4ccsc4)C(=O)N[C@@H](Cc4csc5ccccc45)C(=O)N[C@@H](CCC(N)=O)C(N)=O)(C3)NC(=O)[C@H](CC(C)C)NC(=O)[C@H](Cc3ccccc3)NC(=O)[C@H](C)NC(=O)[C@H](C)NC(=O)[C@H](CN(CC(=O)O)CC(F)(F)F)NC(=O)[C@H](CC(=O)O)NC1=O)NC(=O)[C@H](CC(C)(C)C)NC(=O)[C@H](CC(=O)O)NC2=O (some centres unmarked) [I-1461] ; wanted: its pIC50
5.77

Can you look up the measured pIC50 of CC(=O)N1CCC[C@]12CC=CCCCC1(CCCC=CCCCOC(=O)N3CC[C@@](C(=O)N[C@@H](Cc4ccccc4Cl)C(=O)N[C@@H](Cc4csc5ccccc45)C(=O)N[C@@H](C)CO)(C3)NC(=O)[C@H]([C@@H](C)O)NC(=O)[C@H](Cc3ccccc3)NC(=O)[C@H](C)NC(=O)[C@H](C)NC(=O)[C@H](CN(CC(=O)O)CC(F)(F)F)NC(=O)[C@H](CC(=O)O)NC1=O)NC(=O)[C@H](CC(C)(C)C)NC(=O)[C@H](CC(=O)O)NC2=O (some centres unmarked) [I-1242] for me?
5.42

---

Test: Solubility in PBS
Assay type: physicochemical
Details: Solubility (uM)
Field: Solubility. Provide a value for each of the compounds that follow.
Note: unit µM is implicit; provide only the numeric part.

Look up Solubility for this compound: COCCOCCC(=O)N1CCC[C@]12CC=CCCCC1(CCCC=CCCCOC(=O)N3CC[C@@](C(=O)N[C@@H](Cc4ccccc4Cl)C(=O)N[C@@H](Cc4csc5ccccc45)C(=O)N[C@@H](C(N)=O)[C@H](C)O)(C3)NC(=O)[C@H](CC(N)=O)NC(=O)[C@H](Cc3ccccc3)NC(=O)[C@H](C)NC(=O)[C@H](C)NC(=O)[C@H](CC(=O)O)NC(=O)[C@H](CC(=O)O)NC1=O)NC(=O)[C@H](CC(C)(C)C)NC(=O)[C@H](CC(=O)O)NC2=O (stereo partly drawn) [I-1253]
42

// Solubility lookup, key: CC(=O)N1CCC[C@]12CC=CCCCC1(CCCC=CCCCOC(=O)N3CC[C@@](C(=O)N[C@@H](Cc4ccccc4Cl)C(=O)N[C@@H](Cc4csc5ccccc45)C(=O)N[C@H](C(N)=O)[C@@H](C)O)(C3)NC(=O)[C@H](CCCCNC(C)C)NC(=O)[C@H](Cc3ccccc3)NC(=O)[C@H](C)NC(=O)[C@H](C)NC(=O)[C@H](CCC(=O)O)NC(=O)[C@H](CC(=O)O)NC1=O)NC(=O)[C@H](CC(C)(C)C)NC(=O)[C@H](CC(=O)O)NC2=O (stereo partly drawn) [I-1282]
24

Form field: reported Solubility of CC(=O)N1CCC[C@]12CC=CCCCC1(CCCC=CCCCOC(=O)N3CC[C@@](C(=O)N[C@@H](Cc4ccccc4)C(=O)N[C@@H](Cc4csc5ccccc45)C(=O)N[C@@H](CCC(N)=O)C(N)=O)(C3)NC(=O)[C@H](CC(C)C)NC(=O)[C@H](Cc3cccc(C(F)(F)F)c3)NC(=O)[C@H](C)NC(=O)[C@H](C)NC(=O)[C@H](CC(=O)O)NC(=O)[C@H](CC(=O)O)NC1=O)NC(=O)[C@H](CC(C)(C)C)NC(=O)[C@H](CC(=O)O)NC2=O (stereo partly drawn) [I-1128]
23

---

Please respond with reported IC50 for every item in the list.
Target: full-length beta-Catenin (Uniprot ID P35222) (Homo sapiens)
Construct: 10 nM full-length beta-Catenin (Uniprot ID P35222)
Sequence (P35222 1-781): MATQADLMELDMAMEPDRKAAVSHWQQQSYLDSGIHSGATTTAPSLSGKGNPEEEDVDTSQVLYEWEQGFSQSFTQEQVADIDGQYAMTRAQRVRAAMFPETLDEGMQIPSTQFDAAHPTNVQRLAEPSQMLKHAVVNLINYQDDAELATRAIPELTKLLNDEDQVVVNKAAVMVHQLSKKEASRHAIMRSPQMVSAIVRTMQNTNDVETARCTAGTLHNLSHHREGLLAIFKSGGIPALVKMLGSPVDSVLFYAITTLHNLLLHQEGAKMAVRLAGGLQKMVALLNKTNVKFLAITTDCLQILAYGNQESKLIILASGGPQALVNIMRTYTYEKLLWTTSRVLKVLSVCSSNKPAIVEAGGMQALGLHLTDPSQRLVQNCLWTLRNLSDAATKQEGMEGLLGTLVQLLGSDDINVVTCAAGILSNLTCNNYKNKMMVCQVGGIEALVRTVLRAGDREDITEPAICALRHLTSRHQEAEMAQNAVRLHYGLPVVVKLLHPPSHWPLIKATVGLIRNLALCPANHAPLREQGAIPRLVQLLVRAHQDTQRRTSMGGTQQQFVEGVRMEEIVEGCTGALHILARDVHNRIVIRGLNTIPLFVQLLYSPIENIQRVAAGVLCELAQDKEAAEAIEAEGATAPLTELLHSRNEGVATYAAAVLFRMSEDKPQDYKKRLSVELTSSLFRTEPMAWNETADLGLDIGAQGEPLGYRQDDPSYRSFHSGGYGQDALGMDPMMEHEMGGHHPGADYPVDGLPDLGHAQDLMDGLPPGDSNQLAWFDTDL
Assay: Fluorescence polarization IC50 (beta-catenin / 5FAM-TCF4 10-53 competition)
Format: binding
Settings: fluorescence polarization, beta-catenin; read-out: FP EC50
// return numeric value only (unit: nM, not printed)

What IC50 value was documented for this compound, CC(=O)N1CCC[C@]12CC=CCCCC1(CCCC=CCCCOC(=O)N3CC[C@@](C(=O)N[C@@H](Cc4ccsc4)C(=O)N[C@@H](Cc4csc5ccccc45)C(=O)N[C@@H](CC(C)C)C(N)=O)(C3)NC(=O)[C@H](CC(N)=O)NC(=O)[C@H](Cc3ccccc3)NC(=O)[C@H](C)NC(=O)[C@H](C)NC(=O)[C@H](CN(CC(=O)O)CC(F)(F)F)NC(=O)[C@H](CC(=O)O)NC1=O)NC(=O)[C@H](CC(C)(C)C)NC(=O)[C@H](CC(=O)O)NC2=O (some centres unmarked) [I-946] ?
798

For the compound shown here, CC(=O)N1CCC[C@]12CC=CCCCC1(CCCC=CCCCOC(=O)N3CC[C@@](C(=O)N[C@@H](Cc4ccccc4Cl)C(=O)N[C@@H](Cc4csc5ccccc45)C(=O)N[C@@H](CCC(N)=O)C(N)=O)(C3)NC(=O)[C@H](CC(C)C)NC(=O)[C@H](Cc3ccccc3)NC(=O)[C@H](C)NC(=O)[C@H](C)NC(=O)[C@H](CC(=O)O)NC(=O)[C@H](CC(=O)O)NC1=O)NC(=O)[C@H](CC1CCCCC1)NC(=O)[C@H](CC(=O)O)NC2=O (some centres unmarked) [I-1076] , give the reported IC50.
448

Could you share which IC50 value was measured for CC(C)C[C@@H]1NC(=O)[C@H](Cc2ccccc2)NC(=O)[C@H](C)NC(=O)[C@H](C)NC(=O)[C@H](CC(=O)O)NC(=O)[C@H](CC(=O)O)NC(=O)C2(CCCC=CCCCOC(=O)N3CC[C@@](C(=O)N[C@@H](Cc4ccccc4)C(=O)N[C@@H](Cc4csc5ccccc45)C(=O)N[C@@H](CCC(N)=O)C(N)=O)(C3)NC1=O)CCCC=CC[C@]1(CCCN1C(=O)CCCN(C)C)C(=O)N[C@@H](CC(=O)O)C(=O)N[C@@H](CC(C)(C)C)C(=O)N2 (some centres unmarked) [I-1359] ?
88

For the compound shown here, CCN(CC(=O)O)C[C@@H]1NC(=O)[C@H](CC(=O)O)NC(=O)C2(CCCC=CCCCOC(=O)N3CC[C@@](C(=O)N[C@@H](Cc4ccsc4)C(=O)N[C@@H](Cc4csc5ccccc45)C(=O)N[C@@H](CCC(N)=O)C(N)=O)(C3)NC(=O)[C@H]([C@@H](C)O)NC(=O)[C@H](Cc3ccccc3)NC(=O)[C@H](C)NC(=O)[C@H](C)NC1=O)CCCC=CC[C@]1(CCCN1C(C)=O)C(=O)N[C@@H](CC(=O)O)C(=O)N[C@@H](CC(C)(C)C)C(=O)N2 (some centres unmarked) [I-969] , give the reported IC50.
2320

What does the record list as IC50 for CC(=O)N1CCC[C@]12CC=CCCCC1(CCCC=CCCCCOC(=O)N3CC[C@@](C(=O)N[C@@H](Cc4ccsc4)C(=O)N[C@@H](Cc4csc5ccccc45)C(=O)N[C@@H](Cc4c[nH]cn4)C(=O)N[C@@H](C)C(N)=O)(C3)NC(=O)[C@H](CC(N)=O)NC(=O)[C@H](Cc3ccccc3)NC(=O)[C@H](C)NC(=O)[C@H](C)NC(=O)[C@H](CC(=O)O)NC(=O)[C@H](CC(=O)O)NC1=O)NC(=O)[C@H](CC(C)(C)C)NC(=O)[C@H](CC(=O)O)NC2=O (some centres unmarked) [I-828] ?
13
